TEST TARGET: T1, cyno EphA2 ectodomain (cyno, UniProt Q1KL86 25-537)
T1 construct: extracellular domain
T1 sequence (Q1KL86 25-537): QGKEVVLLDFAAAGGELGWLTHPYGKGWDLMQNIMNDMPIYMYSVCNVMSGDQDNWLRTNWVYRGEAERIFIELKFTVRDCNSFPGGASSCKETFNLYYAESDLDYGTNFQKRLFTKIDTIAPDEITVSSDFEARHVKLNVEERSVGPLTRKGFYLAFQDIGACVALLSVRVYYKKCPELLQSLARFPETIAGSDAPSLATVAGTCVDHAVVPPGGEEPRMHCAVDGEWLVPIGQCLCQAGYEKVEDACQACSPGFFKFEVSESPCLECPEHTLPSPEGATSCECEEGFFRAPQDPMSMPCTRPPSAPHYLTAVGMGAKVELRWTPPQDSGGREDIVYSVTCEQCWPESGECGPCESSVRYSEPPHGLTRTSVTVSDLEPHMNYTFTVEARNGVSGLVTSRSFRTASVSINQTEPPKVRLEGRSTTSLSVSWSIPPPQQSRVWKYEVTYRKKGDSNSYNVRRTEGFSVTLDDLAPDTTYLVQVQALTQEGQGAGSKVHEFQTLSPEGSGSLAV
METHOD DESCRIPTION: SPR (Biacore 8k), Fab-capture, 37C, 1:1 model;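 also: Anti-EphA2 IgG captured via immobilized anti-Fab, soluble EphA2 ectodomain as analyte at six twofold dilutions from 50 nM, HBS-EP+ pH 7.6 running buffer, double reference subtraction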
Some binders, each annotated with its measured koff.
Field format: number, assumed s⁻¹, no unit text.

INSERT INTO measurements (binder, output_unit, test_value) VALUES
  ('anti-EphA2 E152C S375C 1C1 (LC S10T_S72T_G77S) hIgG1 (WT Heavy Chain) (antibody, V domains shown, also called 3x germ) VH: EVQLLESGGGLVQPGGSLRLSCAASGFTFSHYMMAWVRQAPGKGLEWVSRIGPSGGPTHYADSVKGRFTISRDNSKNTLYLQMNSLRAEDTAVYYCAGYDSGYDYVAVAGPAEYFQHWGQGTLVTVSS VL: DIQMTQSPSTLSASVGDRVTITCRASQSISTWLAWYQQKPGKAPKLLIYKASNLHTGVPSRFSGSGSGTEFTLTISSLQPDDFATYYCQQYNSYSRTFGQGTKVEIKR', 's⁻¹', 0.121),
  ('anti-EphA2 E152C S375C 1C1 (LC S93V) hIgG1 (WT Heavy Chain) (antibody, V domains shown, also called PA-62-QD06) VH: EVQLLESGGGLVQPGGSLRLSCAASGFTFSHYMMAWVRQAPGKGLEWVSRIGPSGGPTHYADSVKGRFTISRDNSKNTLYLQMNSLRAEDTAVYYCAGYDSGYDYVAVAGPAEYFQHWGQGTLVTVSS VL: DIQMTQSPSSLSASVGDRVTITCRASQSISTWLAWYQQKPGKAPKLLIYKASNLHTGVPSRFSGSGSGTEFSLTISGLQPDDFATYYCQQYNVYSRTFGQGTKVEIKR', 's⁻¹', 0.105),
  ('anti-EphA2 E152C S375C 1C1 (LC S93A) hIgG1 (WT Heavy Chain) (antibody, V domains shown, also called HD-58-MP05) VH: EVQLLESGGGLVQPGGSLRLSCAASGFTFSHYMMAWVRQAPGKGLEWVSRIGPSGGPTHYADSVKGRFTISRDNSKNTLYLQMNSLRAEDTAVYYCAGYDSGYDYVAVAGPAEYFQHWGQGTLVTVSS VL: DIQMTQSPSSLSASVGDRVTITCRASQSISTWLAWYQQKPGKAPKLLIYKASNLHTGVPSRFSGSGSGTEFSLTISGLQPDDFATYYCQQYNAYSRTFGQGTKVEIKR', 's⁻¹', 0.181);

IN: Read the entry anti-EphA2 E152C S375C 1C1 (LC S93Q) hIgG1 (WT Heavy Chain) (antibody, V domains shown, also called DA-62-QP06) VH: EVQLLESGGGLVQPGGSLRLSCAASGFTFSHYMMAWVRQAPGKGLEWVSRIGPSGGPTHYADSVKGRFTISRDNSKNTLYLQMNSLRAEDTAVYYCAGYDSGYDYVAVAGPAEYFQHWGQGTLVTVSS VL: DIQMTQSPSSLSASVGDRVTITCRASQSISTWLAWYQQKPGKAPKLLIYKASNLHTGVPSRFSGSGSGTEFSLTISGLQPDDFATYYCQQYNQYSRTFGQGTKVEIKR and write its reported koff.
OUT: 0.338

IN: Identify measured koff corresponding to anti-EphA2 E152C S375C 1C1 (LC S72T) hIgG1 (WT Heavy Chain) (antibody, V domains shown, also called 1C1 S72T IgG; FE-76-NO13) VH: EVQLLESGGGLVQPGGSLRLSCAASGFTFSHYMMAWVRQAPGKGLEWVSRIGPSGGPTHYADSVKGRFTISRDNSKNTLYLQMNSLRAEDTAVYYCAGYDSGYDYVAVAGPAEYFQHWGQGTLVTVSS VL: DIQMTQSPSSLSASVGDRVTITCRASQSISTWLAWYQQKPGKAPKLLIYKASNLHTGVPSRFSGSGSGTEFTLTISGLQPDDFATYYCQQYNSYSRTFGQGTKVEIKR
OUT: 0.17

IN: Please indicate koff recorded for anti-EphA2 E152C S375C 1C1 (LC N92Q) hIgG1 (WT Heavy Chain) (antibody, V domains shown, also called 1C1 N92Q IgG; DE-54-AX20) VH: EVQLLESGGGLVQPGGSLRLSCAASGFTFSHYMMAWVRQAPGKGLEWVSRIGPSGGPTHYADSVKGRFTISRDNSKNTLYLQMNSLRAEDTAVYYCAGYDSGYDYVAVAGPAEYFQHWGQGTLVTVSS VL: DIQMTQSPSSLSASVGDRVTITCRASQSISTWLAWYQQKPGKAPKLLIYKASNLHTGVPSRFSGSGSGTEFSLTISGLQPDDFATYYCQQYQSYSRTFGQGTKVEIKR
OUT: 0.0719
